The measured values listed here are drawn from patent US6020006A.

Measured pIC50, listed per entry for reference.
# STUDY SYSTEM: Alkaline phosphatase (Mesocricetus auratus, UniProt A0A1U7QBN2)
# Construct: the supernatant was used as the enzyme source; from tissue; host or cells: whole hamster flank organs, homogenized, 12,000×g supernatant
# Sequence (A0A1U7QBN2 18-524): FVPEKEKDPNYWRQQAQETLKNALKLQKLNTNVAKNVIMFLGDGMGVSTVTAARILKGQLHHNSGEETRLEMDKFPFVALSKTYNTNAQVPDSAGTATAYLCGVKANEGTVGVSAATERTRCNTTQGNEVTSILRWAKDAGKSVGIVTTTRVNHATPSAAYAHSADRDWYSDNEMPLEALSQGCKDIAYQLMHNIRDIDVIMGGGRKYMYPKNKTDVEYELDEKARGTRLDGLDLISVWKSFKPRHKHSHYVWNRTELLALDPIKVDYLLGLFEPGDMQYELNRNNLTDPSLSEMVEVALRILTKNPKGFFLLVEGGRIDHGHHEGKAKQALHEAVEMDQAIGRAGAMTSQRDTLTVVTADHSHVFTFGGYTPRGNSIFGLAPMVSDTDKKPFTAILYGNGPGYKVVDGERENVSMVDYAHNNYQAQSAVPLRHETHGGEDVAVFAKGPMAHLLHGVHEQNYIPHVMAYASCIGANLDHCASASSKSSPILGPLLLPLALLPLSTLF
# PROTOCOL NOTES: Alkaline phosphatase activity, hamster flank organ hair follicle enzyme
# Type: biochemical
# TEST SETTINGS: hamster hair follicle enzyme
The quantity pIC50 is defined as the negative base-10 logarithm of the molar concentration.

- c1ccc(C2CN3CCSC3=N2)cc1 (racemic) [Tetramisole]: 3.90

Record request: pIC50 value, item [Na+].[Na+].[Na+].[O]=[V]([O-])([O-])[O-] [Sodium Orthovanadate, sodium orthovanadate]
4.40
